# key: entry, value: CC50 at 24 h
# assay-summary: in vitro
# assay-context: rat, gh3-tre-luc cells, AC50 (uM) modified / 1000
Structures can show the parent of a compound that is named as a salt.
measured-quantity: CC50 at 24 h

[[record]]
molecule = "CN(C)/N=N/c1[nH]cnc1C(N)=O [Dacarbazine]"
measured_quantity = "CC50 at 24 h"
observed_measurement = "> 90 µM"

[[record]]
molecule = "CC(=O)c1c(C)c([N+](=O)[O-])c(C(C)(C)C)c([N+](=O)[O-])c1C [Musk ketone]"
measured_quantity = "CC50 at 24 h"
observed_measurement = "80.9 µM"

[[record]]
molecule = "C[C@]12CC[C@@H]3c4ccc(O)cc4CC[C@H]3[C@@H]1CCC2=O [Estrone]"
measured_quantity = "CC50 at 24 h"
observed_measurement = "> 50 µM"

[[record]]
molecule = "Oc1ccccc1/C=N/Cc1ccccc1 [Norletimol]"
measured_quantity = "CC50 at 24 h"
observed_measurement = "> 50 µM"

[[record]]
molecule = "Cc1cc(O)c2ccccc2c1O [Menadiol]"
measured_quantity = "CC50 at 24 h"
observed_measurement = "37.2 µM"

[[record]]
molecule = "O=Cc1c2ccccc2c(Cl)c2ccccc12 [10-Chloro-9-anthraldehyde]"
measured_quantity = "CC50 at 24 h"
observed_measurement = "> 50 µM"

[[record]]
molecule = "CCC(C)n1c(=O)[nH]c(C)c(Br)c1=O (stereo not shown) [Bromacil]"
measured_quantity = "CC50 at 24 h"
observed_measurement = "> 90 µM"

[[record]]
molecule = "NC(=O)c1ccc([N+](=O)[O-])cc1Cl [2-Chloro-4-nitrobenzamide]"
measured_quantity = "CC50 at 24 h"
observed_measurement = "> 90 µM"

[[record]]
molecule = "CN(C)C(=O)CNC(=O)Cc1ccccc1"
measured_quantity = "CC50 at 24 h"
observed_measurement = "> 50 µM"

[[record]]
molecule = "CCCCCCCCCCCCOCCO [2-(Dodecyloxy)ethanol]"
measured_quantity = "CC50 at 24 h"
observed_measurement = "> 90 µM"

[[record]]
molecule = "Cc1ccc(N)cc1S(=O)(=O)O [5-Amino-2-methylbenzenesulfonic acid]"
measured_quantity = "CC50 at 24 h"
observed_measurement = "> 90 µM"

[[record]]
molecule = "S=C(NC1CCCCC1)NC1CCCCC1 [N,N'-Dicyclohexylthiourea]"
measured_quantity = "CC50 at 24 h"
observed_measurement = "> 90 µM"

[[record]]
molecule = "Nc1ccc(Cc2ccc(N)c(Cl)c2)cc1Cl [4,4'-Methylenebis(2-chloroaniline)]"
measured_quantity = "CC50 at 24 h"
observed_measurement = "67.7 µM"

[[record]]
molecule = "CC=O [Acetaldehyde]"
measured_quantity = "CC50 at 24 h"
observed_measurement = "3.09 µM"

[[record]]
molecule = "FC(F)(F)c1cccc(C2=CCN(CCc3ccc4ccccc4c3)CC2)c1 [Xaliproden hydrochloride]"
measured_quantity = "CC50 at 24 h"
observed_measurement = "> 50 µM"

[[record]]
molecule = "COC(=O)c1ccccc1O [Methyl salicylate]"
measured_quantity = "CC50 at 24 h"
observed_measurement = "> 90 µM"

[[record]]
molecule = "O=C(O)CCn1c2c(c3ccccc31)C[C@H](NS(=O)(=O)c1ccc(F)cc1)CC2 [Ramatroban]"
measured_quantity = "CC50 at 24 h"
observed_measurement = "> 50 µM"

[[record]]
molecule = "NNCCc1ccccc1 [Phenylethylhydrazine sulfate]"
measured_quantity = "CC50 at 24 h"
observed_measurement = "32.3 µM"

[[record]]
molecule = "N#CCC(=O)NN [Cyacetacide]"
measured_quantity = "CC50 at 24 h"
observed_measurement = "> 50 µM"

[[record]]
molecule = "C=CC(=O)OCCCl [2-Chloroethyl acrylate]"
measured_quantity = "CC50 at 24 h"
observed_measurement = "> 90 µM"

[[record]]
molecule = "ClC(Cl)Cl [Chloroform]"
measured_quantity = "CC50 at 24 h"
observed_measurement = "> 90 µM"

[[record]]
molecule = "C=C(C)[C@H]1CC=C(C)C(=O)C1 [d-Carvone]"
measured_quantity = "CC50 at 24 h"
observed_measurement = "> 90 µM"


----------
# assay-summary: in vitro
# assay-context: rat, gh3-tre-luc cells, AC50 (uM) modified / 1000
Structures can show the parent of a compound that is named as a salt.
Examples of compounds with documented CC50 at 24 h follow.
measured-quantity: CC50 at 24 h

[[record]]
compound = "O=C(O)CCC/C=C\\C[C@H]1[C@H](/C=C/[C@H](O)COc2cccc(Cl)c2)[C@@H](O)C[C@H]1O [Cloprostenol sodium]"
observed_measurement = "> 50 µM"

[[record]]
compound = "CC(C)(C)OC=O [tert-Butyl formate]"
observed_measurement = "> 100 µM"

[[record]]
compound = "N#[N+]c1ccc2c(S(=O)(=O)[O-])cccc2c1O"
observed_measurement = "> 90 µM"

[[record]]
compound = "O=C(OC(=O)c1ccccc1)c1ccccc1 [Benzoic anhydride]"
observed_measurement = "> 90 µM"

[[record]]
compound = "CCOC(=O)NNc1nncc2ccccc12 [Todralazine hydrochloride]"
observed_measurement = "> 50 µM"

[[record]]
compound = "CC(C)=CC(C)(C)C"
observed_measurement = "> 90 µM"

[[record]]
compound = "C#CCN[C@@H]1CCc2ccccc21 [Rasagiline mesylate]"
observed_measurement = "> 50 µM"

[[record]]
compound = "Nc1ccccc1O"
observed_measurement = "40.6 µM"

[[record]]
compound = "C=C[C@H]1CN2CC[C@H]1C[C@H]2[C@H](OC(=O)OCC)c1ccnc2ccc(OC)cc12 [Quinine ethyl carbonate]"
observed_measurement = "> 50 µM"

[[record]]
compound = "Cc1c(C)c2c(c(C)c1O)CCC(C)(COc1ccc(CC3SC(=O)NC3=O)cc1)O2 (stereo not shown)"
observed_measurement = "54.8 µM"


----------
# assay-summary: in vitro
# assay-context: rat, gh3-tre-luc cells, AC50 (uM) modified / 1000, Tox21_110001=Tox21_300036; viability, 1 nM T3 present, 24 h
measured-quantity: CC50 at 24 h

[[record]]
compound_structure = "CN(C)c1ccccc1"
observed_measurement = "> 100 µM"


----------
# assay-summary: in vitro
# assay-context: rat, gh3-tre-luc cells, AC50 (uM) modified / 1000
Structures can show the parent of a compound that is named as a salt.
measured-quantity: CC50 at 24 h

[[record]]
compound = "Cc1cccc(C)c1NC(=O)C(C)N (centres unmarked) [Tocainide hydrochloride]"
measured_quantity = "CC50 at 24 h"
observed_measurement = "> 20 µM"

[[record]]
compound = "CCCN(CCC)C(=O)Cc1c(-c2ccc(Cl)cc2)nc2ccc(Cl)cn12"
measured_quantity = "CC50 at 24 h"
observed_measurement = "> 50 µM"

[[record]]
compound = "CC(C)OC(=O)COc1ccc(Cl)cc1Cl"
measured_quantity = "CC50 at 24 h"
observed_measurement = "> 90 µM"

[[record]]
compound = "CC1CCC(CO)CC1 (centres unmarked)"
measured_quantity = "CC50 at 24 h"
observed_measurement = "> 90 µM"

[[record]]
compound = "CCOC(=O)CCCCCCCCC(=O)OCC [Diethyl decanedioate]"
measured_quantity = "CC50 at 24 h"
observed_measurement = "> 90 µM"

[[record]]
compound = "Nc1ccc(S(=O)(=O)Nc2ccccc2)cc1"
measured_quantity = "CC50 at 24 h"
observed_measurement = "> 50 µM"

[[record]]
compound = "CC(=O)Nc1c(I)cc(I)c(C(=O)O)c1I"
measured_quantity = "CC50 at 24 h"
observed_measurement = "> 50 µM"

[[record]]
compound = "CCCCCCCCBr"
measured_quantity = "CC50 at 24 h"
observed_measurement = "> 90 µM"

[[record]]
compound = "CCOc1ccc(S(=O)(=O)O)c2cccnc12"
measured_quantity = "CC50 at 24 h"
observed_measurement = "> 50 µM"

[[record]]
compound = "C1CCOC1 [Tetrahydrofuran]"
measured_quantity = "CC50 at 24 h"
observed_measurement = "> 100 µM"

[[record]]
compound = "N[C@@H](COP(=O)(O)O)C(=O)O"
measured_quantity = "CC50 at 24 h"
observed_measurement = "> 50 µM"

